experimental_system: JAK1 (recombinant purified GST-tagged catalytic domain) (Homo sapiens (Human), UniProt P23458)
Sequence (P23458 875-1153): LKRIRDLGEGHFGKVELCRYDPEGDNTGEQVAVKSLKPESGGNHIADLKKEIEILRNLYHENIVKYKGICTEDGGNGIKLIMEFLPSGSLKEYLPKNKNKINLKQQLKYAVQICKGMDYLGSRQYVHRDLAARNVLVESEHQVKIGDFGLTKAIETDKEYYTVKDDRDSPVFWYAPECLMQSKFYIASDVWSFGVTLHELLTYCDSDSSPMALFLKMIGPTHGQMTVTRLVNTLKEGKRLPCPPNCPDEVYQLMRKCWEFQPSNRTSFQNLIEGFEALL
method_notes: Jak Biochemical HTRF Assay (JAK1)
settings: [ATP] 31.8 μM
result_type: IC50 (nM)

compound="CC(C)(C)OC(=O)[C@@H]1CC[C@@](CC#N)(n2nc(Nc3ccc(S(C)(=O)=O)cc3)c3c(=O)[nH]ccc32)CO1 [Example 5-39]" unit_of_measure=nM reported_result=0.06
compound="CC(C)(C)OC(=O)[C@H]1CC[C@@](CC#N)(n2nc(Nc3ccc([C@H](N)C(F)(F)F)cc3)c3c(=O)[nH]ccc32)CO1 (single isomer, unassigned)" unit_of_measure=nM reported_result=11.7
compound=N#CC[C@]1(n2nc(Nc3ccc(Cl)c(F)c3)c3c(=O)[nH]ccc32)CC[C@@H](NC2CCCCC2)CC1 unit_of_measure=nM reported_result=20.5
compound=CC(C)(C)OC(=O)[C@@H]1CC[C@@](CC#N)(n2nc(Nc3ccc4c(c3)CN(C(C)(C)C)C4=O)c3c(=O)[nH]ccc32)CO1 unit_of_measure=nM reported_result=0.14
compound=CC(C)(C)S(=O)(=O)c1ccc(Nc2nn(C3(CC#N)CCOCC3)c3cc[nH]c(=O)c23)cc1 unit_of_measure=nM reported_result=0.34
compound="CC(OC(=O)N1CCC(CC#N)(n2nc(Nc3ccc(S(=O)(=O)N(C)C)cc3)c3c(=O)[nH]ccc32)CC1)c1ccccn1 (stereo not drawn)" unit_of_measure=nM reported_result=0.41
compound="N#CCC1(n2nc(Nc3ccc(C(F)(F)F)cc3)c3c(=O)[nH]ccc32)CCC(O)CC1 (stereo not drawn)" unit_of_measure=nM reported_result=4.14
compound="CC(C)(C)OC(=O)[C@@H]1CC[C@@](CC#N)(n2nc(Nc3ccc(C4(C(F)(F)F)CCNC4)cc3)c3c(=O)[nH]ccc32)CO1 (single isomer, unassigned) [Example 5-285]" unit_of_measure=nM reported_result=0.15
compound=CC(C)NC(C)(C)c1ccc(Nc2nn([C@@]3(CC#N)CCCC[C@H]3F)c3cc[nH]c(=O)c23)cc1 unit_of_measure=nM reported_result=0.09
compound="N#CC[C@@]1(n2nc(Nc3ccc4nccc(F)c4c3)c3c(=O)[nH]ccc32)CCOC1 (single isomer, unassigned)" unit_of_measure=nM reported_result=3.93
compound=CN(C)S(=O)(=O)c1ccc(Nc2nn(C3(CC#N)CCN(CCc4ccccc4)CC3)c3cc[nH]c(=O)c23)cc1 unit_of_measure=nM reported_result=3.16
compound="CC(C)(C)OC(=O)[C@H]1CC[C@@](CC#N)(n2nc(Nc3ccc([C@@H](N)C(F)(F)F)cc3)c3c(=O)[nH]ccc32)CO1 (single isomer, unassigned)" unit_of_measure=nM reported_result=11.8
